Source listed as ChEMBL document CHEMBL1153187.

Please respond with reported pIC50 for every item in the list.
# test_method_notes: Toxicity against BALB/c mouse macrophage by MTT assay
# Format: cell-based
# settings: mouse macrophages
Recall that pIC50 is obtained by taking minus log10 of the concentration measured in molar.

stdin: Query: pIC50; subject: COc1cc(O)cc(O)c1C(=O)/C=C/c1ccc(F)cc1
stdout: 4.54

stdin: Could you do the same for C=CCOc1cc(OC)c(C(=O)/C=C/c2ccc([N+](=O)[O-])cc2)c(OCC=C)c1 , please?
stdout: 4.88

stdin: Could you do the same for C[C@@H]1[C@H](O)[C@@H](C)/C=C/C=C/C=C/C=C/C=C/C=C/C=C/[C@H](O[C@@H]2O[C@H](C)[C@@H](O)[C@H](N)[C@@H]2O)C[C@@H]2O[C@](O)(C[C@@H](O)C[C@@H](O)[C@H](O)CC[C@@H](O)C[C@@H](O)CC(=O)O[C@H]1C)C[C@H](O)[C@H]2C(=O)O , please?
stdout: 5.28

stdin: Could you do the same for COc1cccc(/C=C/C(=O)c2c(O)cc(O)cc2OC)c1 , please?
stdout: 4.75

stdin: Could you do the same for C=CCOc1cc(OC)c(C(=O)/C=C/c2cccc(OC)c2)c(OCC=C)c1 , please?
stdout: 4.88

stdin: Could you do the same for C=CCOc1cc(OC)c(C(=O)/C=C/c2ccc(OC)cc2)c(OCC=C)c1 , please?
stdout: 4.73

stdin: Could you do the same for COc1cc(O)cc(O)c1C(=O)/C=C/c1ccc(O)cc1 , please?
stdout: 4.66
